# System: HOP-92 NSCLC
# assay.procedure: NCI-60 one-dose screen, 48 h
# condition.details: 10 µM unless noted
The panel holds about 83,000 compounds, 20% with a hit somewhere; the sample as a whole holds those more often. Calls of active or inactive are those of the source. Rule for the calls: active = growth percent below 10; inactive = the rest.
Outcome codes: true (1) (active), false (0) (inactive)

[
  {
    "compound": "O=C1OCc2cccc3cccc1c23",
    "measurement.target": "HOP-92 NSCLC",
    "label.class": "false (0)"
  },
  {
    "compound": "Cc1ccc(C(=Nc2ccccc2)N=P(c2ccccc2)(c2ccccc2)c2ccccc2)cc1",
    "measurement.target": "HOP-92 NSCLC",
    "label.class": "true (1)"
  },
  {
    "compound": "O=C1c2ccccc2C(=O)c2sc(Nc3cccc(Cl)c3)nc21",
    "measurement.target": "HOP-92 NSCLC",
    "label.class": "false (0)"
  },
  {
    "compound": "CC1OC2CC(=O)OC2C2=C1C(=O)c1c(O)cccc1C2=O (stereo not given)",
    "measurement.target": "HOP-92 NSCLC",
    "label.class": "true (1)"
  },
  {
    "compound": "O=C(/C=C\\c1cc(Br)ccc1O)/C=C/c1cc(Br)ccc1O",
    "measurement.target": "HOP-92 NSCLC",
    "label.class": "true (1)"
  },
  {
    "compound": "c1ccc2c(c1)Nc1cc3ccccc3cc1N2",
    "measurement.target": "HOP-92 NSCLC",
    "label.class": "false (0)"
  },
  {
    "compound": "C/C=C1\\SC(=S)NC1=O",
    "measurement.target": "HOP-92 NSCLC",
    "label.class": "false (0)"
  },
  {
    "compound": "O=C1C2=C(Nc3cc([N+](=O)[O-])ccc3N2)OC1c1c2ccccc2cc2ccccc12 (stereo not given)",
    "measurement.target": "HOP-92 NSCLC",
    "label.class": "false (0)"
  },
  {
    "compound": "O=[N+]([O-])c1ccc(N=Nc2ccc(O)cc2O)cc1",
    "measurement.target": "HOP-92 NSCLC",
    "label.class": "true (1)"
  },
  {
    "compound": "O=C1N[C@H]2[C@H](CS[C@H]2CCCCC(=O)N(CCP(c2ccccc2)c2ccccc2)CCP(c2ccccc2)c2ccccc2)N1",
    "measurement.target": "HOP-92 NSCLC",
    "label.class": "false (0)"
  },
  {
    "compound": "CCCCCCCCCCCCCCCCN(CC)CC",
    "measurement.target": "HOP-92 NSCLC",
    "label.class": "true (1)"
  },
  {
    "compound": "CN1c2ccccc2C(C)(C)C12C=Cc1cc(O)ccc1O2 (stereo not given)",
    "measurement.target": "HOP-92 NSCLC",
    "label.class": "true (1)"
  },
  {
    "compound": "Oc1c(Cl)cc(Cl)c2cccnc12",
    "measurement.target": "HOP-92 NSCLC",
    "label.class": "false (0)"
  },
  {
    "compound": "CC(C)(C)CC(C)(C)c1ccc(OCCSC(=N)N)cc1",
    "measurement.target": "HOP-92 NSCLC",
    "label.class": "false (0)"
  },
  {
    "compound": "NC1=CC(=O)c2ccccc2C1=O",
    "measurement.target": "HOP-92 NSCLC",
    "label.class": "false (0)"
  },
  {
    "compound": "CCC(=O)Sc1ccccc1C(=O)Nc1ccc(Cl)cc1",
    "measurement.target": "HOP-92 NSCLC",
    "label.class": "false (0)"
  },
  {
    "compound": "CN(C)c1ccc(N=Nc2cccc3ccccc23)cc1",
    "measurement.target": "HOP-92 NSCLC",
    "label.class": "false (0)"
  },
  {
    "compound": "N#CSCc1c(Cl)cccc1Cl",
    "measurement.target": "HOP-92 NSCLC",
    "label.class": "false (0)"
  },
  {
    "compound": "CCOc1ccc(-c2nc3ccc(-c4nc5ccc(N6CCN(C)CC6)cc5[nH]4)cc3[nH]2)cc1",
    "measurement.target": "HOP-92 NSCLC",
    "label.class": "true (1)"
  },
  {
    "compound": "CCOC(=O)/C=C/c1ccc([N+](=O)[O-])o1",
    "measurement.target": "HOP-92 NSCLC",
    "label.class": "false (0)"
  }
]

* * *

# Test system: SK-MEL-2 melanoma
# assay.procedure: NCI-60 one-dose screen, 48 h
# condition.details: 10 µM unless noted
About 83,000 compounds went through this panel and 20% of them were active in at least one assay; those are over-represented in the sample as a whole. The source made the active and inactive calls. The calls were made as follows: active = growth percent below 10; inactive = the rest.
Outcome codes: active, inactive

[
  {
    "compound": "Cn1c2ccccc2c2nnc(N/N=C/c3ccccn3)nc21",
    "label.class": "inactive"
  },
  {
    "compound": "N#CSCc1ccc(CSC#N)c(Cl)c1",
    "label.class": "inactive"
  },
  {
    "compound": "CCC(c1cccc(O)c1)C(CC)c1cccc(O)c1 (stereo unspecified)",
    "label.class": "inactive"
  },
  {
    "compound": "N[C@H](C(=O)O)[C@@H]1CC(Cl)=NO1",
    "label.class": "inactive"
  },
  {
    "compound": "CC(=O)C(=Cc1ccc(C=C(C(C)=O)C(C)=O)cc1)C(C)=O",
    "label.class": "inactive"
  },
  {
    "compound": "CN(Cc1cnc2nc(N)nc(N)c2n1)c1ccc(C(=O)NC(CCC(=O)O)C(=O)O)cc1 (stereo unspecified)",
    "label.class": "inactive"
  },
  {
    "compound": "C1=C(c2ccccc2)C(c2ccc(OCCN3CCCCC3)cc2)Oc2ccccc21 (stereo unspecified)",
    "label.class": "inactive"
  },
  {
    "compound": "CCN(CC)CC(C)(C)C(=O)/C=C/c1ccc(Cl)c(Cl)c1",
    "label.class": "active"
  },
  {
    "compound": "O=C1c2ccccc2C(=O)N1c1ccccc1",
    "label.class": "inactive"
  },
  {
    "compound": "S=C(N/N=C/c1ccccn1)Nc1ccccn1",
    "label.class": "active"
  },
  {
    "compound": "O=C(Nc1cccc(Br)c1)Oc1ccc(Cl)c2cccnc12",
    "label.class": "inactive"
  }
]

Just for reference, PubChem BioAssay (NCI) is where these values come from.
